Hello, the source for this data is patent US20250099448A1, in case you need it.

Target: MAGL protein (Homo sapiens, UniProt Q99685)
Sequence (Q99685 1-303): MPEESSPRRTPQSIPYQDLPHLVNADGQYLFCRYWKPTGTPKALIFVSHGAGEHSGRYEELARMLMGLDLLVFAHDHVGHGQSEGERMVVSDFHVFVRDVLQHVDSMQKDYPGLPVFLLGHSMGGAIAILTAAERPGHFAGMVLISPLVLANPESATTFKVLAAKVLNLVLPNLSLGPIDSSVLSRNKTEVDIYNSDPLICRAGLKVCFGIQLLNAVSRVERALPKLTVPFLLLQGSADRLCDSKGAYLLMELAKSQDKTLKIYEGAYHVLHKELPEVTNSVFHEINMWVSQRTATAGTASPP
For each record, write down the corresponding pIC50.
Please keep in mind that pIC50 is minus log10 of the molar concentration; only the number is needed.

pIC50 for `O=C(N1CC2(CC(Cn3ccnc3C(F)(F)F)C2)C1)N1CC2(CC(c3nc(C4CC4)n[nH]3)C2)C1` is 8.76

So for `CS(=O)(=O)c1ccc(-c2ccc(C3CN(C(=O)N4CC5(CC(c6ncn[nH]6)C5)C4)C3)cc2)c(Cl)c1` , the logged pIC50 turned out to be 5.75

Short answer for CS(=N)(=O)c1ccc(CC2CC3(C2)CN(C(=O)N2CC4(CC(c5nc(C6CC6)n[nH]5)C4)C2)C3)cc1C(F)(F)F (stereo not drawn) : pIC50 was 8.76

Record `O=C(N1CC2(CC(c3nnc(C4(O)CC4)[nH]3)C2)C1)N1CC2(C1)CN(S(=O)(=O)c1ccccc1C(F)(F)F)C2` , field pIC50: 7.55

Form: compound = O=C(N1CC(c2ccc(C3(C(F)(F)F)CC3)cc2)C1)N1CC2(CC(c3nnc(C(O)C(F)(F)F)[nH]3)C2)C1 (stereo not drawn) ; pIC50 = 7.83

The compound identified as `O=C(N1CC2(CC(Cc3ncc(F)cc3F)C2)C1)N1CC2(CC(c3nc(C(F)(F)F)n[nH]3)C2)C1` registered its pIC50 at 8.18

# compound `O=C(N1CC2(CC(c3nc(C4(O)CC4)n[nH]3)C2)C1)N1CC2(CC(C(F)(F)c3ccc(C(F)(F)F)nn3)C2)C1` ; its pIC50 = 8.09

Recorded pIC50 (compound `CS(=O)(=O)c1cc(C(F)(F)F)ccc1CN1CC2(C1)CN(C(=O)N1CC3(CC(c4nc(C5CC5)n[nH]4)C3)C1)C2` ): 8.56

The reported value for `O=C(N1CC2(CC(Cc3cncc(C(F)(F)F)c3)C2)C1)N1CC2(CC(c3nnc(C4CC4)[nH]3)C2)C1` in terms of pIC50 is 9.66

Recorded pIC50 (compound `O=C(N1CC(NS(=O)(=O)c2cccc(C(F)(F)F)c2)C1)N1CC2(CC(c3nnc(C4CC4)[nH]3)C2)C1` ): 6.48

Entry `O=C(N1CC2(CC(c3nnc(C4CC4)[nH]3)C2)C1)N1CC2(CN(Cc3cc(F)cc(F)c3)C2)C1` , pIC50 reported as 8.22

Recorded pIC50 (compound `O=C(N1CC(C2CN(Cc3ccc(C(F)(F)F)cc3)C2)C1)N1CC2(CC(c3nnc(C4CC4)[nH]3)C2)C1` ): 7.49

Please fill in: pIC50 reported for `N#Cc1cc(CC2CC3(C2)CN(C(=O)N2CC4(CC(c5nnc(C6(O)CC6)[nH]5)C4)C2)C3)cnc1C(F)(F)F` = 8.29

The recorded pIC50 for entry `COc1cc(C(F)(F)F)ccc1CNC1CN(C(=O)N2CC3(CC(c4nnc(C5CC5)[nH]4)C3)C2)C1` equals 7.81

Lab note: `O=C(N1CC2(CC(c3nnc(C4CC4)[nH]3)C2)C1)N1CC2(C1)CN(S(=O)(=O)c1ccc(F)c(C(F)(F)F)c1)C2` gave pIC50 of 7.82

Recorded result, `O=C(N1CC2(CCC(Cc3ncc(F)cc3F)CC2)C1)N1CC2(CC(c3nnc(C4CC4)[nH]3)C2)C1` , pIC50: 9.08

Measured pIC50 of N=S(=O)(c1cc(F)cc(CC2CC3(C2)CN(C(=O)N2CC4(CC(c5nc(C6CC6)n[nH]5)C4)C2)C3)c1)C(F)(F)F (stereo not drawn) : 9.92

# pIC50 of `CC(C)(C)c1coc(CN2CC3(C2)CN(C(=O)N2CC4(CC(c5nc(C6CC6)n[nH]5)C4)C2)C3)n1` = 8.67

Record summary for `CS(=O)(=O)c1ccc(CC2CC3(C2)CN(C(=O)N2CC4(CC(c5nnc(C6CC6)[nH]5)C4)C2)C3)cc1C(F)(F)F` : reported pIC50 = 9.05

Notebook: `O=C(N1CC(COc2ccc(C(F)(F)F)cc2F)C1)N1CC2(CC(c3nnc(C4CC4)[nH]3)C2)C1` , pIC50 read as 9.51

// sample O=C(N1CC(c2ccc([C@H]3C[C@H](C(F)F)C3)cc2)C1)N1CC2(CC(c3nnc(C4CC4)[nH]3)C2)C1 (single isomer, unassigned) , its pIC50 was 9.74

Reported pIC50 ( `O=C(N1CC(c2ccc(C3(C(F)(F)F)CC3)nc2)C1)N1CC2(CC(c3nnc(C4CC4)[nH]3)C2)C1` ) = 8.47

Value of measured pIC50 for the entry `Cn1cc(CC2CC3(C2)CN(C(=O)N2CC4(CC(c5nc(C6CC6)n[nH]5)C4)C2)C3)c(C(F)(F)F)n1` : 9.64

Value of pIC50 reported for the compound `O=C(N1CC2(CC(c3nc(C4CC4)n[nH]3)C2)C1)N1CC2(CN(Cc3noc(C(F)(F)F)n3)C2)C1` is 7.01

Kindly note the recorded pIC50 for `O=C(N1C[C@H]2CN(Cc3ccccc3)C[C@H]2C1)N1CC2(CC(c3nnc(C4CC4)[nH]3)C2)C1` , which is 6.61

Data point: `CS(=O)(=O)c1cc(F)ccc1CC1CC2(C1)CN(C(=O)N1CC3(CC(c4nnc(C5CC5)[nH]4)C3)C1)C2` ; pIC50 = 9.15

Memo: `NS(=O)(=O)c1ccc(C2CN(C(=O)N3CC4(CC(c5nnc(C6CC6)[nH]5)C4)C3)C2)cc1` , reported pIC50: 7.19
